TEST PROTOCOL: Antiproliferative activity against human PBMC cells assessed as inhibition of cell growth measured after 3 days by celltiter-glo luminescent cell viability assay
Format: toxicity, cell-based
OBSERVATION TYPE: IC50 at 3 days

Look at this compound and give its reported IC50 at 3 days. Cc1cc(=O)n(-c2cc(Cl)ccc2F)nc1C(=O)Nc1ccc(Oc2ccnc(NC(=O)N3CC(O)C3)c2)c(F)c1 > 30 µM

* * *

TEST PROTOCOL: Antiproliferative activity against non-FLT3 expressing human OCI-Ly1 cells assessed as inhibition of cell growth measured after 3 days by celltiter-glo luminescent cell viability assay
Type: functional, cell-based
CONDITION: OCI-Ly1, 72 h
OBSERVATION TYPE: pIC50
Answers are plain numbers, as −log10 of the molar value.

Param item = Cc1cc(=O)n(-c2cc(Cl)ccc2F)nc1C(=O)Nc1ccc(Oc2ccnc(NC(=O)N3CC(O)C3)c2)c(F)c1 ; retrieve measured pIC50. 4.91
